Each entry below carries its recorded ICmax.
Test system: Listeria monocytogenes
Assay: Antibacterial activity against leucocin A-sensitive Listeria monocytogenes B73 after 16 hrs by micro-gel well diffusion assay
Type: functional
Non-standard residues stand in square brackets, D forms with d. Residues, ends and D or L forms follow the SMILES beside them. Orn = NCCC[C@H](N)C(=O)O
Numeric answer only, unit µM assumed.

Solved cases below.
compound: CC(C)C[C@@H]1NC(=O)[C@H](CCCN)NC(=O)[C@H](C(C)C)NC(=O)[C@H](Cc2ccc(O)cc2)NC(=O)[C@H](CCC(N)=O)NC(=O)[C@H](CC(N)=O)NC(=O)[C@@H](Cc2ccccc2)NC(=O)[C@H](Cc2c[nH]c3ccccc23)NC(=O)[C@@H]2CCCN2C(=O)[C@@H](Cc2ccccc2)NC1=O [TYROCIDINE B]
units-of-measure: µM
observed-result: 15
//
compound: CC(C)C[C@@H]1NC(=O)[C@H](CCCCN)NC(=O)[C@H](C(C)C)NC(=O)[C@H](Cc2ccc(O)cc2)NC(=O)[C@H](CCC(N)=O)NC(=O)[C@H](CC(N)=O)NC(=O)[C@@H](Cc2c[nH]c3ccccc23)NC(=O)[C@H](Cc2c[nH]c3ccccc23)NC(=O)[C@@H]2CCCN2C(=O)[C@@H](Cc2ccccc2)NC1=O [TYROCIDINE C1]
units-of-measure: µM
observed-result: 22
//
compound: CC(C)C[C@@H]1NC(=O)[C@H](CCCCN)NC(=O)[C@H](C(C)C)NC(=O)[C@H](Cc2ccc(O)cc2)NC(=O)[C@H](CCC(N)=O)NC(=O)[C@H](CC(N)=O)NC(=O)[C@@H](Cc2ccccc2)NC(=O)[C@H](Cc2ccccc2)NC(=O)[C@@H]2CCCN2C(=O)[C@@H](Cc2ccccc2)NC1=O [TYROCIDINE A1]
units-of-measure: µM
observed-result: 38
//
compound: CC(C)C[C@@H]1NC(=O)[C@H](CCCN)NC(=O)[C@H](C(C)C)NC(=O)[C@@H]2CCCN2C(=O)[C@@H](Cc2ccccc2)NC(=O)[C@H](CC(C)C)NC(=O)[C@H](CCCN)NC(=O)[C@H](C(C)C)NC(=O)[C@@H]2CCCN2C(=O)[C@@H](Cc2ccccc2)NC1=O [GRAMICIDIN S] (cyclo(L[dF]PV[Orn]L[dF]PV[Orn]))
units-of-measure: µM
observed-result: 11
//
compound: CC(C)C[C@@H]1NC(=O)[C@H](CCCN)NC(=O)[C@H](C(C)C)NC(=O)[C@H](Cc2ccc(O)cc2)NC(=O)[C@H](CCC(N)=O)NC(=O)[C@H](CC(N)=O)NC(=O)[C@@H](Cc2ccccc2)NC(=O)[C@H](Cc2ccccc2)NC(=O)[C@@H]2CCCN2C(=O)[C@@H](Cc2ccccc2)NC1=O [TYROCIDINE A] (cyclo(F[dF]NQYV[Orn]L[dF]P))
units-of-measure: µM
observed-result: 25

Notebook: pull reported ICmax for Listeria monocytogenes, entry CC(C)C[C@@H]1NC(=O)[C@H](CCCN)NC(=O)[C@H](C(C)C)NC(=O)[C@H](Cc2ccc(O)cc2)NC(=O)[C@H](CCC(N)=O)NC(=O)[C@H](CC(N)=O)NC(=O)[C@@H](Cc2c[nH]c3ccccc23)NC(=O)[C@H](Cc2c[nH]c3ccccc23)NC(=O)[C@@H]2CCCN2C(=O)[C@@H](Cc2ccccc2)NC1=O [TYROCIDINE C] 13

Notebook: pull reported ICmax for Listeria monocytogenes, entry CC(C)C[C@@H]1NC(=O)[C@H](CCCCN)NC(=O)[C@H](C(C)C)NC(=O)[C@H](Cc2ccc(O)cc2)NC(=O)[C@H](CCC(N)=O)NC(=O)[C@H](CC(N)=O)NC(=O)[C@@H](Cc2ccccc2)NC(=O)[C@H](Cc2c[nH]c3ccccc23)NC(=O)[C@@H]2CCCN2C(=O)[C@@H](Cc2ccccc2)NC1=O [TYROCIDINE B1] 15

These entries and their values trace back to ChEMBL document CHEMBL1155276.
